Exercise: state measured kon for each of the binders provided.
# TARGET OR TEST SYSTEM: T1, human serum albumin (HSA), full length (human, UniProt P02768 25-609)
# T1 construct: mature; Immobilized on CM5 chip (SPR) or coated on plates (ELISA)
# T1 sequence (P02768 25-609): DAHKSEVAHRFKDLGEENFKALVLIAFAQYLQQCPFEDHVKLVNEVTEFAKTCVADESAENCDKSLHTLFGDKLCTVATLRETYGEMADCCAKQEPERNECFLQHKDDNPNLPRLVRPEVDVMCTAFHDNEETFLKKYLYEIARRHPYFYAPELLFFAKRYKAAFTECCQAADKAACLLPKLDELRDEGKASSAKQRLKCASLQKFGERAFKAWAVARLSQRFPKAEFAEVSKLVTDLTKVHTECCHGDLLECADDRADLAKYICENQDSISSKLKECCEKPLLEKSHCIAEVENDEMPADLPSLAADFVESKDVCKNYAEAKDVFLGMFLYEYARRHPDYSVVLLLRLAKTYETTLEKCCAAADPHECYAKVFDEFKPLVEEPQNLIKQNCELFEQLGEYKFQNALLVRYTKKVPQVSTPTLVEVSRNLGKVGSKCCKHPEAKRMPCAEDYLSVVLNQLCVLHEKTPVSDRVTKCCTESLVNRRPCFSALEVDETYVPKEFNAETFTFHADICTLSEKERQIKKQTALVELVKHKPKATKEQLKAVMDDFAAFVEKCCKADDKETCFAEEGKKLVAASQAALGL
# ASSAY NAME: SPR kinetics, immobilized albumin, 1:1 fit, 37 C
# Description: The SPR was conducted as follows. Full length human, mouse, rat and cynomolgus monkey serum albumin were immobilized on a Biacore T series CM5 chip at 15 ug/mL in 10 mM acetate buffer (pH 5.0) buffer using standard NHS/EDC coupling, to a surface density of approximately 1000-1100 RU. […]
Numbers only, in M⁻¹ s⁻¹.

Please give the measured kon for this binder: ADX_7016_E02 (L38T) (designed binder, Full His6-tagged entry; also called 6727_E08) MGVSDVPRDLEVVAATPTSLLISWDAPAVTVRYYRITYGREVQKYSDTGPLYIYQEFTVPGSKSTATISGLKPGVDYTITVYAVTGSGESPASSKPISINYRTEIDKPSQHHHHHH
24200

Fill in kon for each of the 3 binders listed.
1. ADX_7016_G01 (Y44S) (designed binder, Full His6-tagged entry; also called 6727_G02) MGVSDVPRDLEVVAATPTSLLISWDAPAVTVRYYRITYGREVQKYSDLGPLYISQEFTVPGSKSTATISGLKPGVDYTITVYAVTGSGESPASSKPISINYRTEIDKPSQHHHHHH
2. ADX_7016_C03 (Y44Q) (designed binder, Full His6-tagged entry; also called 6727_B03) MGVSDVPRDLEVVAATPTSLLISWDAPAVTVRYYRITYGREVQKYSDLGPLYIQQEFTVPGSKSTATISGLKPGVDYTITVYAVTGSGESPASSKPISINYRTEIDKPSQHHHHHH
3. ADX_7016_A01 (parent PKE2 Adnectin) (designed binder, N-terminal Met may be cleaved; also called 2629_E06; ADX_2629_E06) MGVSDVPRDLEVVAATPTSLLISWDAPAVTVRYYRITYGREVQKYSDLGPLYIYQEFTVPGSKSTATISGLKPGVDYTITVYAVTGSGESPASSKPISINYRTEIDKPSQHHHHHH

[38200, 32100, 61200]
